Would you kindly list self-splicing fitness (ln) for each of these sequences?
- Assay Notes: self-splicing fitness, log relative to wild type (ln ratio); higher = more splicing; Tetrahymena group I intron in knt gene, E. coli kanamycin selection, DiMSum; sequences stand for … in CUCUCU…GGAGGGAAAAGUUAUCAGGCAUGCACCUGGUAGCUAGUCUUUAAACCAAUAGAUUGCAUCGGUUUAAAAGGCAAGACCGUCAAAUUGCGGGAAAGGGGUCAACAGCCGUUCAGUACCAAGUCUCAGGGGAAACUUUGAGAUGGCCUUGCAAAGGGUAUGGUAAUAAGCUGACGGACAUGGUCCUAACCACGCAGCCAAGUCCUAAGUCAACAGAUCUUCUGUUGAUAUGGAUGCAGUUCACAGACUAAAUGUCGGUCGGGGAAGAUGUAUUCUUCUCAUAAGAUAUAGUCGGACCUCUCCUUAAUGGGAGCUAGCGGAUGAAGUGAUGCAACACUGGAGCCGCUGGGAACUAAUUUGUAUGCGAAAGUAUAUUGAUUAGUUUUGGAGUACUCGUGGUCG;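 note: selection with 25 µg/mL kanamycin versus none on LB agar overnight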
- Condition Notes: 30 °C
Answers are plain numbers.

{"Ordered Residues": "UGAUAGCAAUAUUACGUCGG", "Experimental Endpoint": "self-splicing fitness (ln)", "Reported": -1.4}

Hey, can you go through the list below and give me self-splicing fitness (ln) for every item?
1. CGUCAGCAAUAUUACGCACC
2. UGUUAGCAAUAUUACGCAGA
3. AGACAGCAAUAUUACGAUCA
4. CAUCAGCAAUAUUACGGGCU
5. AUCCAGCAAUAUUACGCUAC

1: -1.51; 2: -0.741; 3: -0.682; 4: -4.04; 5: -4.03

// each listed sequence needs a value for self-splicing fitness (ln)
1. UUAUAGCAAUAUUACGAACU
2. UAGCAGCAAUAUUACGGCAU
3. AUUAAGCAAUAUUACGUAUC
4. UCAUAGCAAUAUUACGGGUG
5. GUCAAGCAAUAUUACGAAAA
6. GUGGAGCAAUAUUACGUUCA
7. AAACAGCAAUAUUACGCACU
8. GUAAAGCAAUAUUACGGCGU

[-2.51, -1.29, -3.93, -1.94, -1.95, -1.02, -0.221, -0.369]

Please go through the list and note self-splicing fitness (ln) for each sequence.
1. GCUAAGCAAUAUUACGGGGC
2. GGGAAGCAAUAUUACGAACU

1: -4.76; 2: -2.22

Values compiled from the supplement of paper PMC7877785.
